Values compiled from patent US7402602B2.

Measured Property: melting point

>>> measured_result("CCCC(CCC)c1nc(-c2ccc(C(C)(C)C)cc2)c[nH]1")
"200 to 202 °C"
>>> measured_result("CC(c1ccccc1)c1nc(-c2ccc(-c3ccccc3)cc2)c[nH]1 (stereo not shown)")
"165 to 166 °C"
>>> measured_result("CCCC(CCC)c1nc(-c2ccc(F)cc2)c[nH]1")
"217.5 °C"

Entry c1ccc(CCCc2nc(-c3ccccc3)c[nH]2)cc1 has what melting point?
106 to 108 °C

Follow-up item: CCCC(CCC)c1nc(-c2ccc(-c3ccccc3)cc2)c[nH]1
197 to 198 °C

----------
melting point: recorded values

>>> measured_result("CCCCCC(CCCCC)c1nc(-c2ccc(-c3ccccc3)cc2)c[nH]1")
"173.6 °C"

As a next step, examine the compound that follows.
melting point for CCCCCCc1nc(-c2ccc(CC(C)C)cc2)c[nH]1 ?
89 to 90 °C

----------
melting point values, listed per item

Worked examples, 5 compounds total:
>>> measured_result("CC(C)Cc1ccc(Cc2nc(-c3ccc(-c4ccccc4)cc3)c[nH]2)cc1 [Example 1]")
"160 to 161 °C"
>>> measured_result("c1ccc(-c2ccc(-c3c[nH]c(CC4CCCCC4)n3)cc2)cc1 [Example 17]")
"104 to 105 °C"
>>> measured_result("Fc1ccc(-c2c[nH]c(CC3CCCCC3)n2)cc1 [Example 6]")
"68 to 70 °C"
>>> measured_result("c1ccc(-c2ccc(-c3c[nH]c(CCCC4CCCCC4)n3)cc2)cc1 [Example 18]")
"118 to 119 °C"
>>> measured_result("CCCCCC(CCCCC)c1nc(-c2ccc(F)cc2)c[nH]1 [Example 5]")
"134.6 °C"

Please examine the following record next.
Look up melting point: CC(C)Cc1ccc(C(C)c2nc(-c3ccc(-c4ccccc4)cc3)c[nH]2)cc1 (stereo not drawn) [Example 13]
172.7 °C
